system.tested: transcriptional switch components containing FKBP and 2098L mutant FRB domains (Homo sapiens, UniProt P42345+P62942)
Construct: transcriptional switchcomponents containing FKBP and 2098L mutant FRB domains, respectively; fused on or other part: The two switch components are separate chimeric proteins; Neither is given for this cell line
Sequence (P62942 2-108 limits assumed, stated change not applied, other chains not shown): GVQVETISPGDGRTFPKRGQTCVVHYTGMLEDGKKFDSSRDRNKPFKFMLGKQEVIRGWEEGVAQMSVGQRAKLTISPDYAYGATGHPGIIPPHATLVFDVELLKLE
procedure.details: transcription assay in engineered HD1080 cells expressing SEAP (txn 2098L)
Assay type: cell-based
condition.description: cellular transcription assay, methods of Example 2.5; read-out: TXN 2098L EC50
Method: The ability of the rapalogs to multimerize chimeric proteins may be measured in cell-based assays by measuring the occurrence of an event triggered by such multimerization. […] A rapalog is added to the culture medium and after a suitable incubation period (to permit gene expression and secretion, e.g. several hours or overnight) the presence of the reporter gene product is measured. […]
reported.metric: pEC50
Note on pEC50: it is the negative log10 of concentration, concentration in mol/L.

// worked examples, pEC50 included
COC1CC(CC(C)C2CC(=O)C(C)C=C(C)C(O)C(OC)C(=O)C(C)CC(C)C=CC=CC=C(C)C(NC(=O)OCc3ccccc3)CC3CCC(C)C(O)(O3)C(=O)C(=O)N3CCCCC3C(=O)O2)CCC1O (stereo not drawn) [28-epi-7R-benzylcarbamate] : 8.05
COC1CC(CC(C)C2CC(=O)C(C)C=C(C)C(O)C(OC)C(=O)C(C)CC(C)C=CC=CC=C(C)C(c3ccc(C)s3)CC3CCC(C)C(O)(O3)C(=O)C(=O)N3CCCCC3C(=O)O2)CCC1O (stereo not drawn) [28-epi-7R-methylthiophene] : 7.66
CO[C@@H]1C[C@H](C[C@@H](C)[C@@H]2CC(=O)[C@H](C)/C=C(\C)[C@H](O)[C@@H](OC)C(=O)[C@H](C)C[C@H](C)/C=C/C=C/C=C(\C)[C@H](N(C)C(=O)Oc3ccc(C)cc3)C[C@@H]3CC[C@@H](C)[C@@](O)(O3)C(=O)C(=O)N3CCCC[C@H]3C(=O)O2)CC[C@H]1O [28-epi-7R-N-Me-p-tolylcarbamate] : 7.15
COC1CC(CC(C)C2CC(=O)C(C)C=C(C)C(O)C(OC)C(=O)C(C)CC(C)C=CC=CC=C(C)C(NS(=O)(=O)N(C)C)CC3CCC(C)C(O)(O3)C(=O)C(=O)N3CCCCC3C(=O)O2)CCC1O (stereo not drawn) [28-epi-7S-dimethylsulfamide] : 7.70
COc1ccc(C2CC3CCC(C)C(O)(O3)C(=O)C(=O)N3CCCCC3C(=O)OC(C(C)CC3CCC(O)C(OC)C3)CC(=O)C(C)C=C(C)C(O)C(OC)C(=O)C(C)CC(C)C=CC=CC=C2C)c(OC)c1 (stereo not drawn) [28-epi-7R-dimethoxyphenyl] : 7.59
CO[C@@H]1C[C@H](C[C@@H](C)[C@@H]2CC(=O)[C@H](C)/C=C(\C)[C@H](O)[C@@H](OC)C(=O)[C@H](C)C[C@H](C)/C=C/C=C/C=C(\C)[C@@H](N(C)S(C)(=O)=O)C[C@@H]3CC[C@@H](C)[C@@](O)(O3)C(=O)C(=O)N3CCCC[C@H]3C(=O)O2)CC[C@H]1O [28-epi-7S-N-Me-methanesulfonamide] : 7.57
COC1CC(CC(C)C2CC(=O)C(C)C=C(C)C(O)C(OC)C(=O)C(C)CC(C)C=CC=CC=C(C)C(N(C)C(=O)OCC(C)C)CC3CCC(C)C(O)(O3)C(=O)C(=O)N3CCCCC3C(=O)O2)CCC1O (single isomer, unassigned) [28-epi-7S-N-Me-isobutylcarbamate] : 7.40
CO[C@@H]1C[C@H](C[C@@H](C)[C@@H]2CC(=O)[C@H](C)/C=C(\C)[C@H](O)[C@@H](OC)C(=O)[C@H](C)C[C@H](C)/C=C/C=C/C=C(\C)[C@H](N(C)S(C)(=O)=O)C[C@@H]3CC[C@@H](C)[C@@](O)(O3)C(=O)C(=O)N3CCCC[C@H]3C(=O)O2)CC[C@H]1O [28-epi-7R-N-Me-methanesulfonamide] : 8.10
CO[C@@H]1C[C@H](C[C@@H](C)[C@@H]2CC(=O)[C@H](C)/C=C(\C)[C@H](O)[C@@H](OC)C(=O)[C@H](C)C[C@H](C)/C=C/C=C/C=C(\C)[C@@H](NS(=O)(=O)N(C)c3ccccc3)C[C@@H]3CC[C@@H](C)[C@@](O)(O3)C(=O)C(=O)N3CCCC[C@H]3C(=O)O2)CC[C@H]1O [28-epi-7S-methylphenylsulfamide] : 7.55
COC1CC(CC(C)C2CC(=O)C(C)C=C(C)C(O)C(OC)C(=O)C(C)CC(C)C=CC=CC=C(C)C(OCc3ccccc3)CC3CCC(C)C(O)(O3)C(=O)C(=O)N3CCCCC3C(=O)O2)CCC1O (single isomer, unassigned) [28-epi-7S-benzyloxy] : 7.74

We next turn to a different compound, shown below.
q: Need pEC50 of CCCS(=O)(=O)N(C)C1CC2CCC(C)C(O)(O2)C(=O)C(=O)N2CCCCC2C(=O)OC(C(C)CC2CCC(O)C(OC)C2)CC(=O)C(C)C=C(C)C(O)C(OC)C(=O)C(C)CC(C)C=CC=CC=C1C (single isomer, unassigned) [28-epi-7R-N-Me-propanesulfonamide] , thanks.
a: 8.05

====

system.tested: transcriptional switch components containing FKBP and 2098L mutant FRB domains (Homo sapiens, UniProt P42345+P62942)
Construct: transcriptional switchcomponents containing FKBP and 2098L mutant FRB domains, respectively; fused on or other part: The two switch components are separate chimeric proteins; Neither is given for this cell line
procedure.details: transcription assay in engineered HD1080 cells expressing SEAP (txn 2098L)
Assay type: cell-based
condition.description: read-out: TXN 2098L EC50; cellular transcription assay, methods of Example 2.5
reported.metric: pEC50
pEC50 here: minus log base 10 of the concentration, concentration in moles per litre.

Answered cases to consult:
CO[C@@H]1C[C@H](C[C@@H](C)[C@@H]2CC(=O)[C@H](C)/C=C(\C)[C@H](O)[C@@H](OC)C(=O)[C@H](C)C[C@H](C)/C=C/C=C/C=C(\C)[C@@H](Oc3ccccc3C)C[C@@H]3CC[C@@H](C)[C@@](O)(O3)C(=O)C(=O)N3CCCC[C@H]3C(=O)O2)CC[C@H]1O [28-epi-7S-2′-methylphenyloxy] : 7.85
C=CCO[C@H]1C[C@@H]2CC[C@@H](C)[C@@](O)(O2)C(=O)C(=O)N2CCCC[C@H]2C(=O)O[C@H]([C@H](C)C[C@@H]2CC[C@@H](O)[C@H](OC)C2)CC(=O)[C@H](C)/C=C(\C)[C@H](O)[C@@H](OC)C(=O)[C@H](C)C[C@H](C)/C=C/C=C/C=C/1C [28-epi-7S-allyloxy] : 8.10

Now for the compound whose pEC50 we want.
q: Value lookup for pEC50; key = CO[C@@H]1C[C@H](C[C@@H](C)[C@@H]2CC(=O)[C@H](C)/C=C(\C)[C@H](O)[C@@H](OC)C(=O)[C@H](C)C[C@H](C)/C=C/C=C/C=C(\C)[C@H](N(C)S(=O)(=O)c3ccc(C)cc3)C[C@@H]3CC[C@@H](C)[C@@](O)(O3)C(=O)C(=O)N3CCCC[C@H]3C(=O)O2)CC[C@H]1O [28-epi-7R-N-Me-p-toluenesulfonamide]
a: 8.10

====

system.tested: transcriptional switch components containing FKBP and 2098L mutant FRB domains (Homo sapiens, UniProt P42345+P62942)
Construct: transcriptional switchcomponents containing FKBP and 2098L mutant FRB domains, respectively; fused on or other part: The two switch components are separate chimeric proteins; Neither is given for this cell line
procedure.details: transcription assay in engineered HD1080 cells expressing SEAP (txn 2098L)
Format: cell-based
condition.description: cellular transcription assay, methods of Example 2.5; read-out: TXN 2098L EC50
EC50 values for the compounds below.

Take a look at these entries with their results.
CO[C@@H]1C[C@H](C[C@@H](C)[C@@H]2CC(=O)[C@H](C)/C=C(\C)[C@H](O)[C@@H](OC)C(=O)[C@H](C)C[C@H](C)/C=C/C=C/C=C(\C)[C@H](NS(C)(=O)=O)C[C@@H]3CC[C@@H](C)[C@@](O)(O3)C(=O)C(=O)N3CCCC[C@H]3C(=O)O2)CC[C@H]1O [28-epi-7R-methanesulfonamide] : 24 nM
CO[C@@H]1C[C@H](C[C@@H](C)[C@@H]2CC(=O)[C@H](C)/C=C(\C)[C@H](O)[C@@H](OC)C(=O)[C@H](C)C[C@H](C)/C=C/C=C/C=C(\C)[C@@H](Oc3ccccc3)C[C@@H]3CC[C@@H](C)[C@@](O)(O3)C(=O)C(=O)N3CCCC[C@H]3C(=O)O2)CC[C@H]1O [28-epi-7S-phenyloxy] : 8 nM

q: Tell me the measured EC50 of CO[C@@H]1C[C@H](C[C@@H](C)[C@@H]2CC(=O)[C@H](C)/C=C(\C)[C@H](O)[C@@H](OC)C(=O)[C@H](C)C[C@H](C)/C=C/C=C/C=C(\C)[C@@H](N(C)C(=O)Oc3ccc(C)cc3)C[C@@H]3CC[C@@H](C)[C@@](O)(O3)C(=O)C(=O)N3CCCC[C@H]3C(=O)O2)CC[C@H]1O [28-epi-7S-N-Me-p-tolylcarbamate] , please.
a: 25 nM
